FYI, the data here is from patent US11427561B2.

# STUDY_SYSTEM: IRAK4 (Homo sapiens (Human), UniProt Q9NWZ3)
# Sequence (Q9NWZ3 whole entry, species assumed): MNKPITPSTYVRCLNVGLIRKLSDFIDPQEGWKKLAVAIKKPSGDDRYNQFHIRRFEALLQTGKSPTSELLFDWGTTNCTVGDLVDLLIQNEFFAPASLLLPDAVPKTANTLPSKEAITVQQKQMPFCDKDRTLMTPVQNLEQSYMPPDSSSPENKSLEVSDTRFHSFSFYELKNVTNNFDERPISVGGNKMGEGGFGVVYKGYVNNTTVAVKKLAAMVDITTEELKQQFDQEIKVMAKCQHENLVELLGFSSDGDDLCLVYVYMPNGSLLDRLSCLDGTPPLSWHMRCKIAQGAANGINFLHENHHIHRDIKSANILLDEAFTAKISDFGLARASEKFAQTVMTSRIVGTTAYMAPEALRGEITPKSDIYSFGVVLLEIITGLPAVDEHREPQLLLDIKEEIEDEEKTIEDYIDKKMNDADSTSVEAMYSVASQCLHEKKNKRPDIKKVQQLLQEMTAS
# TEST_DETAILS: IRAK-4 biochemical assay, AlphaScreen format (phosphorylation of a biotin labeled peptide)
# EXPERIMENTAL_CONTEXT: 1 nM IRAK4, 1.6 μM peptide, 1 mM ATP, 3.5 h at RT
Listed here are compounds together with their documented IC50.
MEASUREMENT_KIND: IC50

COMPOUND	STUDY_SYSTEM	MEASUREMENT_KIND	EXPERIMENTAL_RESULT
CC1(O)CC([C@H](N)c2cccc(-c3ccc4cnn(-c5cccc(CF)n5)c4c3)n2)C1 (stereo partly drawn) [Compound 35i]	IRAK4 (Homo sapiens (Human), UniProt Q9NWZ3)	IC50	100 to 1000 nM
CC1(O)CC([C@H](N)c2cccc(-c3ccc4cnn(-c5cccc(CF)n5)c4c3)n2)C1 (stereo partly drawn) [Compound 35f]	IRAK4 (Homo sapiens (Human), UniProt Q9NWZ3)	IC50	≤ 100 nM
COC1CC([C@H](N)c2cccc(-c3ccc4cnn(-c5cccc(C(F)F)n5)c4c3)n2)C1 (stereo partly drawn) [Compound 35h]	IRAK4 (Homo sapiens (Human), UniProt Q9NWZ3)	IC50	≤ 100 nM
N[C@H](c1cccc(-c2ccc3cnn(-c4cccc(C(F)(F)F)n4)c3c2)n1)[C@H]1C[C@@H](O)C1 [Compound 10]	IRAK4 (Homo sapiens (Human), UniProt Q9NWZ3)	IC50	≤ 100 nM
COc1cccc(-n2ncc3ccc(-c4cccc([C@@H](N)C5CC(O)C5)n4)cc32)n1 (stereo partly drawn) [Compound 35e]	IRAK4 (Homo sapiens (Human), UniProt Q9NWZ3)	IC50	100 to 1000 nM
CCc1cccc(-n2ncc3ccc(-c4cccc([C@@H](N)[C@H]5C[C@@H](O)C5)n4)cc32)n1 [Compound 12]	IRAK4 (Homo sapiens (Human), UniProt Q9NWZ3)	IC50	≤ 100 nM

====

For IRAK4 (Homo sapiens (Human), UniProt Q9NWZ3), measured IC50 is reported for the entries below.

COMPOUND	IC50
N[C@H](c1cccc(-c2ccc3cnn(-c4cccc(C(F)F)n4)c3c2)n1)C1CC(O)C1 (stereo partly shown) [Compound 35a]	≤ 100 nM
N#CC1(c2cccc(-n3ncc4ccc(-c5cccc([C@@H](N)[C@H]6C[C@@H](O)C6)n5)cc43)n2)CC1	≤ 100 nM
CCc1ccnc(-n2ncc3ccc(-c4cccc([C@@H](N)[C@H]5C[C@@H](O)C5)n4)cc32)n1	100 to 1000 nM
N[C@H](c1cncc(-c2ccc3cnn(-c4cccc(CF)n4)c3c2)n1)[C@H]1C[C@@H](O)C1	100 to 1000 nM
